Where do the numbers come from? From PubChem BioAssay AID1261.

As shown below, each of these compounds has a reported inhibition value.
- SUBJECT OF TEST: Tyrosine-protein phosphatase YopH [Yersinia enterocolitica]
- METHOD NOTES: potency against Yersinia YopH phosphatase – biochemical, 10-point dose range, dose response (AID 1261)
- APPLIED CONDITIONS: YopH phosphatase enzymatic assay, IC50, 3 runs; inhibition; at 50 µM; stronger effect = higher value
Results filed as inconclusive are left out.

- COMPOUND: "COCCCNC(=O)C1CCCN(C(=O)Nc2ccc(OC)cc2)C1 (stereo not drawn)"
  UNITS LABEL: "%"
  inhibition: -19.6
- COMPOUND: "CN(C1=C(NC(=O)c2ccccc2)C(=O)c2ccccc2C1=O)C1CCS(=O)(=O)C1 (stereo not drawn)"
  UNITS LABEL: "%"
  inhibition: 27
- COMPOUND: "CCc1ccc(S(=O)(=O)/N=C2/C=C(Sc3ncn[nH]3)C(=O)c3ccccc32)cc1"
  UNITS LABEL: "%"
  inhibition: 17.2
- COMPOUND: "CCOC(=O)N1CCN(C(=O)Cn2c(C)cc3ccccc3c2=O)CC1"
  UNITS LABEL: "%"
  inhibition: -14.1
- COMPOUND: "O=C(O)c1ccc(NC2=C(N3CCOCC3)C(=O)c3ccccc3C2=O)cc1"
  UNITS LABEL: "%"
  inhibition: -0.899
- COMPOUND: "CC(=O)NC1=C(N(C)C2CCS(=O)(=O)C2)C(=O)c2ccccc2C1=O (stereo not drawn)"
  UNITS LABEL: "%"
  inhibition: 9.79
- COMPOUND: "Cc1[nH]n(-c2ccccc2)c(=O)c1C(C[N+](=O)[O-])c1ccc(Cl)cc1 (stereo not drawn)"
  UNITS LABEL: "%"
  inhibition: -6.86
- COMPOUND: "N[C@@H](C(=O)N[C@@H]1C(=O)N2C(C(=O)O)=C(Cl)CS[C@H]12)c1ccccc1"
  UNITS LABEL: "%"
  inhibition: -8.78
- COMPOUND: "Cc1ccccc1/[N+]([O-])=C/c1ccncc1"
  UNITS LABEL: "%"
  inhibition: 15.6
- COMPOUND: "COCCCNC(=O)CCCC(=O)NCCCOC"
  UNITS LABEL: "%"
  inhibition: -17.3
- COMPOUND: "Cn1c(COc2ccccc2)nnc1SCc1nc2ccccc2[nH]1"
  UNITS LABEL: "%"
  inhibition: -3.78
- COMPOUND: "CCN1CCC2(CC1)N=C(c1ccc(F)cc1)C(=S)N2C(=O)c1ccc(C)cc1"
  UNITS LABEL: "%"
  inhibition: 28.6
- COMPOUND: "O=C(O[C@@H]1OC2COC(=O)c3cc(O)c(O)c(O)c3-c3c(cc(O)c(O)c3O)C(=O)O[C@@H]([C@H]1O)[C@@H]2O)c1cc(O)c(O)c(O)c1"
  UNITS LABEL: "%"
  inhibition: -0.367
